Target Desc: T1, human C1s (human, UniProt P09871 16-688)
T1 construct: Analyte in the Biacore assays; also called hC1s; serum-derived human C1s (CompTech)
T1 sequence: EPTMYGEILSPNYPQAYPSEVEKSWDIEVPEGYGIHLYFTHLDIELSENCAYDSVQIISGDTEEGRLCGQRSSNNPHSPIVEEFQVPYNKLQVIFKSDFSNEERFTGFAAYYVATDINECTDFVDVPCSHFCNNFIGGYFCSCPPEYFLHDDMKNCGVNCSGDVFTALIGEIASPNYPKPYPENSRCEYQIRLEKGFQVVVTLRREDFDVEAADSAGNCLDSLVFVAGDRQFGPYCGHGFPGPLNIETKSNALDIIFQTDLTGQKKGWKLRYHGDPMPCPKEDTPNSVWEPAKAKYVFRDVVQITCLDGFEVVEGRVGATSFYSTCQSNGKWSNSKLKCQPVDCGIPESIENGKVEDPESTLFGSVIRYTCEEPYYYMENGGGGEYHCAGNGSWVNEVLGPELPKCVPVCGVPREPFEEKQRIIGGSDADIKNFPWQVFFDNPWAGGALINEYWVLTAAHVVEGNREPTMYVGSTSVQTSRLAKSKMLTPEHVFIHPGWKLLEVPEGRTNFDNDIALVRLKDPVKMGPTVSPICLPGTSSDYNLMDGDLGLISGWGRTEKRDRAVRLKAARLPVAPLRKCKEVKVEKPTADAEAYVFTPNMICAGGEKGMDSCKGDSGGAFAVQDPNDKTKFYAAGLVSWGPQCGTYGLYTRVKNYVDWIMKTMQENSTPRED
Assay Text: SPR; KD at pH 5.8 (1.2 mM Ca) over KD at pH 7.4 (1.2 mM Ca)
Assignment: determine reported KD 5(+)/7(+) for the given binders.
Lab note: record the figure alone, no unit after it.

KD 5(+)/7(+) for C1_IPN92H0061-SG4GK/IPN93L0024-SK1 (antibody, human IgG4 S228P, kappa, name in Kabat numbering, V domains shown, Substitutions from IPN009VH2, Kabat numbering; also called IPN92H0061/IPN93L0024) VH: EVMLVESGGGLVKPGGSLRLSCAASGFTKSNYAMSWVRQAPGKGLEWVATISSGGSHTYYLDSVKGRFTISRDNSKDTLYLQMNSLRAEDTALYYCARLFTGHAMDYWGQGTLVTVSS VL: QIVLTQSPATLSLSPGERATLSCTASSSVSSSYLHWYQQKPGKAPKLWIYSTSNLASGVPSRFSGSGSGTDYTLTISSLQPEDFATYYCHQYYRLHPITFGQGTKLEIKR is 1.7

KD 5(+)/7(+) for C1_IPN92H0117-SG4GK/IPN93L0024-SK1 (antibody, human IgG4 S228P, kappa, name in Kabat numbering, V domains shown, Substitutions from IPN009VH2, Kabat numbering; also called IPN92H0117/IPN93L0024) VH: EVMLVESGGGLVKPGGSLRLSCAASGFTFSNYAMSWVRQAPGKGLEWVATISQGGSHTYYLDSVKGRFTISRDNSKDTLYLQMNSLRAEDTALYYCARLFTGHAMDYWGQGTLVTVSS VL: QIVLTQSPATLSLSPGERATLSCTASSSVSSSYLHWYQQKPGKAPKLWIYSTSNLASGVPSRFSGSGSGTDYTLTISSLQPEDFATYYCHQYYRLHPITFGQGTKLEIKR is 3.8
